Every entry's value here was drawn from patent US3954726A.

# protocolSummary: Acute toxicity (DL50) in the mouse
# conditionDescription: in vivo, ip
Where a name gives a salt, the structure may show the parent alone.
assayReadout: LD50

// query Reported LD50 for C[S+](CC[C@H](N)C(=O)O)C[C@H]1O[C@@H](n2cnc3c(N)ncnc32)[C@H](O)[C@@H]1O (stereo partly shown) [SAM salt] : what is it?
// result > 2500 mg/kg

* * *

# protocolSummary: Acute toxicity (DL50) in the mouse
# conditionDescription: in vivo, po, os
Structures can show the parent of a compound that is named as a salt.
assayReadout: LD50

// query Reported LD50 for C[S+](CC[C@H](N)C(=O)O)C[C@H]1O[C@@H](n2cnc3c(N)ncnc32)[C@H](O)[C@@H]1O (stereo partly shown) [SAM salt] : what is it?
// result > 6000 mg/kg

* * *

# protocolSummary: physchem
# conditionDescription: dry state, percentage of SAM residue
assayReadout: remaining at 2880 h (%)
Answers are plain numbers, in %.

// query Reported remaining at 2880 h for C[S+](CC[C@H](N)C(=O)O)C[C@H]1O[C@@H](n2cnc3c(N)ncnc32)[C@H](O)[C@@H]1O (stereo partly shown) [SAM, SAM disulphate di-p-toluenesulphonate] : what is it?
// result 100
